Tested on: SRS-A release
procedure-summary: Inhibition of SRS-A release from sensitized guinea pig lung fragments challenged with ovalbumin (bioassay on guinea pig ileum)
Format: cell-based
conditions-used: Cavia porcellus; Drug Concentration 3 × 10^-5 M; read-out: Inhibition of SRS-A Release, Percent Inhibition
Each entry gets Not satisfied if its inhibition at 30 µM stays under 70%, and Satisfied if its inhibition at 30 µM is 70% or above.

Example entries and their recorded answers appear below.
1) O=C1C=C(Nc2ccccc2)C(=O)c2nccnc21 [Example 3, 6-anilino-5,8-quinoxalinedione] ... Satisfied
2) O=C1C=C(Nc2ccccc2F)C(=O)c2nccnc21 [Example 5, 6-(2-fluoroanilino)-5,8-quinoxalinedione] ... Satisfied

Enquiry: Is reported inhibition at 30 µM greater than or equal to 70% here: O=C1C=C(Nc2cccc(F)c2)C(=O)c2nccnc21 [Example 7, 6-(3-fluoroanilino)-5,8-quinoxalinedione]
Return: Satisfied

Enquiry: For CN(C1=CC(=O)c2nccnc2C1=O)c1ccccc1 [Example 4, 6-(N-methylanilino)-5,8-quinoxalinedione] then?
Return: Not satisfied
